Recorded measurements of Ke, one per entry
Molecular target: Opioid receptor (Mus musculus) (UniProt P42866+P32300+P33534)
Sequence (P32300 whole entry, looked up): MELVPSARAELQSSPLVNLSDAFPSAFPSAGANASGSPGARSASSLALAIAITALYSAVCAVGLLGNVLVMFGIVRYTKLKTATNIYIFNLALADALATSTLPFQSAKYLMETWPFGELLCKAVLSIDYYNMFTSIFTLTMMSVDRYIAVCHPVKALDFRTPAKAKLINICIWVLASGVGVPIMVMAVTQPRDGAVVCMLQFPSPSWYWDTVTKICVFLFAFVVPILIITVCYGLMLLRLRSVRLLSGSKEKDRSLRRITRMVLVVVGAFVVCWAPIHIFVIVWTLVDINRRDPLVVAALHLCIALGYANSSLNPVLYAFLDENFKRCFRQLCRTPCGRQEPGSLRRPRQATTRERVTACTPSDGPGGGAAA
Sequence (P33534 whole entry, looked up): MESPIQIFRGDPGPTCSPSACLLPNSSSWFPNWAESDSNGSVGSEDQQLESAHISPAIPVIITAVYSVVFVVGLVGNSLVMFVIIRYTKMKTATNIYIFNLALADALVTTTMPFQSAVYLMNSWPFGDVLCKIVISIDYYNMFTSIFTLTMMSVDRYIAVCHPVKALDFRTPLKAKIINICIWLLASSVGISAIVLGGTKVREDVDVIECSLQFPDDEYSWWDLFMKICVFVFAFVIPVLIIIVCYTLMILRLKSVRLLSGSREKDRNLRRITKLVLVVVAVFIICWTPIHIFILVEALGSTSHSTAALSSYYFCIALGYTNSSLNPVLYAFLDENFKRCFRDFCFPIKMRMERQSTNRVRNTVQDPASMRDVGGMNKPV
Sequence (P42866 whole entry, looked up): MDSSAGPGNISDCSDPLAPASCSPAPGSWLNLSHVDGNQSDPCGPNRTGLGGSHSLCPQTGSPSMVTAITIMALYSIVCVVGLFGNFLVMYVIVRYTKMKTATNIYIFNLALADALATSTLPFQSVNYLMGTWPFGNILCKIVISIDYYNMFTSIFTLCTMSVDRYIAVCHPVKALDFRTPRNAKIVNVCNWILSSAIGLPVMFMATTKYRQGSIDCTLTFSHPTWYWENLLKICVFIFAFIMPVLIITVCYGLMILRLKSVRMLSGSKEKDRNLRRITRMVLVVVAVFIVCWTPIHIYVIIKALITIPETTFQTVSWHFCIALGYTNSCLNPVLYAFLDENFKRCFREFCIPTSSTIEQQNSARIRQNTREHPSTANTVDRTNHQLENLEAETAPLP
Experiment: Opioid receptors antagonist activity in smooth-muscle tissue mouse vas deferens (MVD) in presence of ICI
Assay type: functional, tissue-based
Positions of bridges follow the written chain, without caps; N, C: chain ends. Residues, ends and D or L forms follow the SMILES beside them.
readout kind: Ke

* CC(C)C[C@@H]1NC(=O)[C@H](CCCCN)NC(=O)[C@@H]2CCCN2C(=O)[C@H](CCCN=C(N)N)NC(=O)[C@H](NC(=O)[C@H](CCCN=C(N)N)NC(=O)[C@H](CCCN=C(N)N)NC(=O)[C@H](CC(C)C)NC(=O)[C@H](Cc2ccccc2)NC(=O)CNC(=O)CNC(=O)[C@@H](N)Cc2ccc(O)cc2)CSSC[C@@H](C(N)=O)NC1=O | 667 nM
* CC[C@H](C)[C@H](NC(=O)[C@H](CCCN=C(N)N)NC(=O)[C@H](CCCN=C(N)N)NC(=O)[C@H](CC(C)C)NC(=O)[C@H](Cc1ccccc1)NC(=O)CNC(=O)CNC(=O)[C@@H](N)Cc1ccc(O)cc1)C(=O)N[C@@H](CCCN=C(N)N)C(=O)N1CCC[C@H]1C(=O)N[C@@H](CCCCN)C(N)=O | 625 nM
* CC(C)C[C@H](NC(=O)[C@H](Cc1ccccc1)NC(=O)CNC(=O)CNC(=O)[C@@H](N)Cc1ccc(O)cc1)C(=O)N[C@@H](CCCN=C(N)N)C(=O)N[C@@H](CCCN=C(N)N)C(=O)N[C@@H]1CSSC[C@H](C(N)=O)NC(=O)[C@H](CC(C)C)NC(=O)[C@H](CCCCN)NC(=O)[C@@H]2CCCN2C(=O)[C@H](CCCN=C(N)N)NC1=O | 1000 nM
* CC[C@H](C)[C@@H]1NC(=O)[C@H](CCCN=C(N)N)NC(=O)[C@H](CCCN=C(N)N)NC(=O)[C@@H](NC(=O)[C@H](Cc2ccccc2)NC(=O)CNC(=O)CNC(=O)[C@@H](N)Cc2ccc(O)cc2)CSSC[C@@H](C(N)=O)NC(=O)[C@@H]2CCCN2C(=O)[C@H](CCCN=C(N)N)NC1=O (H-YGGFCRRIRPC-NH2; disulfide 5-11) | 86.2 nM
* CC(C)C[C@@H]1NC(=O)[C@H](CCCCN)NC(=O)[C@@H]2CCCN2C(=O)[C@H](CCCN=C(N)N)NC(=O)[C@@H](NC(=O)[C@H](CCCN=C(N)N)NC(=O)[C@H](CCCN=C(N)N)NC(=O)[C@H](CC(C)C)NC(=O)[C@H](Cc2ccccc2)NC(=O)CNC(=O)CNC(=O)[C@@H](N)Cc2ccc(O)cc2)CSSC[C@@H](C(N)=O)NC1=O | 156 nM
* C[C@H]1NC(=O)[C@H](CCCN=C(N)N)NC(=O)[C@H](CCCN=C(N)N)NC(=O)[C@@H](NC(=O)[C@H](Cc2ccccc2)NC(=O)CNC(=O)CNC(=O)[C@@H](N)Cc2ccc(O)cc2)CSSC[C@@H](C(N)=O)NC(=O)[C@@H]2CCCN2C(=O)[C@H](CCCN=C(N)N)NC1=O | 21.3 nM

* * *

Recorded measurements of IC50, one per entry
Molecular target: Opioid receptor (Mus musculus, UniProt P42866+P32300+P33534)
Assay: Opioid receptors antagonist activity in smooth-muscle tissue mouse vas deferens (MVD)
Assay type: functional, tissue-based
Positions of bridges follow the written chain, without caps; N, C: chain ends. Residues, ends and D or L forms follow the SMILES beside them.
readout kind: IC50 (nM)

- CC(C)C[C@@H]1NC(=O)[C@H](CCCCN)NC(=O)[C@@H]2CCCN2C(=O)[C@H](CCCN=C(N)N)NC(=O)[C@H](NC(=O)[C@H](CCCN=C(N)N)NC(=O)[C@H](CCCN=C(N)N)NC(=O)[C@H](CC(C)C)NC(=O)[C@H](Cc2ccccc2)NC(=O)CNC(=O)CNC(=O)[C@@H](N)Cc2ccc(O)cc2)CSSC[C@@H](C(N)=O)NC1=O: 24.5
- CC[C@H](C)[C@H](NC(=O)[C@H](CCCN=C(N)N)NC(=O)[C@H](CCCN=C(N)N)NC(=O)[C@H](CC(C)C)NC(=O)[C@H](Cc1ccccc1)NC(=O)CNC(=O)CNC(=O)[C@@H](N)Cc1ccc(O)cc1)C(=O)N[C@@H](CCCN=C(N)N)C(=O)N1CCC[C@H]1C(=O)N[C@@H](CCCCN)C(N)=O: 204
- CC[C@H](C)[C@@H]1NC(=O)[C@H](CCCN=C(N)N)NC(=O)[C@H](CCCN=C(N)N)NC(=O)[C@@H](NC(=O)[C@H](Cc2ccccc2)NC(=O)CNC(=O)CNC(=O)[C@@H](N)Cc2ccc(O)cc2)CSSC[C@@H](C(N)=O)NC(=O)[C@@H]2CCCN2C(=O)[C@H](CCCN=C(N)N)NC1=O (H-YGGFCRRIRPC-NH2; disulfide 5-11): 421
- CC(C)C[C@H](NC(=O)[C@H](Cc1ccccc1)NC(=O)CNC(=O)CNC(=O)[C@@H](N)Cc1ccc(O)cc1)C(=O)N[C@@H](CCCN=C(N)N)C(=O)N[C@@H](CCCN=C(N)N)C(=O)N[C@@H]1CSSC[C@H](C(N)=O)NC(=O)[C@H](CC(C)C)NC(=O)[C@H](CCCCN)NC(=O)[C@@H]2CCCN2C(=O)[C@H](CCCN=C(N)N)NC1=O: 19.5
